# tested.system: T1, TDP-1 peptide (human)
# T1 construct: Immunogen peptide; conjugated to Luminex beads in the assay; also called TDP-43 aa 212-272
# T1 peptide: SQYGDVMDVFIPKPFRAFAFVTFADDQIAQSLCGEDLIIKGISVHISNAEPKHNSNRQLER
# assay.protocol: Luminex bead assay, antibody serial dilution, TDP-1 peptide beads
measurement.type: EC50

Use these answered entries as a reference point.
binder="ACI-7062-415C4-Ab1 (antibody, IgG1, V domains shown, also called 415C4C6; clone 14) VH: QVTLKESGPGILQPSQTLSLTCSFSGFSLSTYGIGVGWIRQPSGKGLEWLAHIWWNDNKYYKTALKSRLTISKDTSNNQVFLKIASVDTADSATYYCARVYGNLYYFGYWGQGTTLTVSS VL: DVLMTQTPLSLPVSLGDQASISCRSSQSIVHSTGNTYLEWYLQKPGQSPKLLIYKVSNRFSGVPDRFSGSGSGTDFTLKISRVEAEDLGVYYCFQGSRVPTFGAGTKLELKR" measurement_type=EC50 val="< 0.01 nM"
binder="ACI-7062-416A11-Ab1 (antibody, IgG2a, V domains shown, also called 416A11B3; clone 18) VH: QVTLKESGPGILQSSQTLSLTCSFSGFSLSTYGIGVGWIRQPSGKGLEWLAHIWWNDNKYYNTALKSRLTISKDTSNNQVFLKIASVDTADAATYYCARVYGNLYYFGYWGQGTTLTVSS VL: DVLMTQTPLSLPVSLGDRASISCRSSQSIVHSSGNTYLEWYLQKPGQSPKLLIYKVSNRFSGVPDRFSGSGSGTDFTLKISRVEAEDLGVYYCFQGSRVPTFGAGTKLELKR" measurement_type=EC50 val="< 0.01 nM"

Query: Please give measured EC50 of the following entry: ACI-7062-404D6-Ab2 (antibody, IgG3, V domains shown, also called 404D6E11; clone 4) VH: QVTLKESGPGILQPSQTLSLTCSFSGFSLSTYGIGVGWIRQPSGKGLEWLAHIWWNDYKYYNTALKSRLTISKDTSNNRVFLKIASVDTADTATYYCARVYGNLYYFDYWGQGTTLTVSS VL: DVLMTQTPLSLPVSLGDQASISCRSSQSIVHGSGNTYLEWYLQKPGQSPKLLIYKVSNRFSGVPDRFSGSGSGTDFTLRISRVEAEDLGVYYCFQGSHVPTFGAGTKLELKR
Reply: < 0.01 nM

Query: Return value of EC50 for input ACI-7062-406E3-Ab2 (antibody, IgG2a, V domains shown, also called 406E3G10; clone 6) VH: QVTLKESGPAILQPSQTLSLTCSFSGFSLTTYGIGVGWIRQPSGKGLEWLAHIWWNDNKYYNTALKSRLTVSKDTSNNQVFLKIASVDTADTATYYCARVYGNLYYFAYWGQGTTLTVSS VL: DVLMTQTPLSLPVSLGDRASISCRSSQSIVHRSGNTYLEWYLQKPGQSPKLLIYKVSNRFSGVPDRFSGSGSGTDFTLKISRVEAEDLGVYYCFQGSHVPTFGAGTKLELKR , no commentary.
Reply: < 0.01 nM
